Every entry's value here was drawn from paper PMC6522510.

Test system: M07e
Test: Secondary dose-response HTS, Cell Titer Glo
Type: cell-based, human
Settings: Homo sapiens, M-07e; secondary high-throughput screen; M07e; read-out: average effective concentration, M07e
pEC50: −log10 of the molar value.
EXPERIMENTAL_ENDPOINT: pEC50

{"columns": ["MOLECULE", "EXPERIMENTAL_ENDPOINT", "BOUND_TYPE", "OBS_VALUE"],
 "data": [
  ["CC(C)Oc1ccc(C(=O)N[C@H](CNC(=O)CN(C)C)Cc2ccc(-c3cn4cccc([C@H](C)O)c4n3)cc2)cc1Cl", "pEC50", "=", 6.85],
  ["COc1cc([C@@H]2c3cc4c(cc3[C@@H](O[C@@H]3O[C@@H]5CO[C@@H](C)O[C@H]5[C@H](O)[C@H]3O)[C@H]3COC(=O)[C@H]23)OCO4)cc(OC)c1O [ETOPOSIDE]", "pEC50", "=", 5.77],
  ["O=C1CCC[C@@H]2[C@H]3CCC[N+]4([O-])CCC[C@@H](CN12)[C@@H]34 (stereo partly shown)", "pEC50", "=", 7.24],
  ["NC(=O)c1ncn([C@@H]2O[C@H](CO)[C@@H](O)[C@H]2O)n1", "pEC50", "=", 5.03],
  ["CCc1c2c(nc3ccc(OC(=O)N4CCC(N5CCCCC5)CC4)cc13)-c1cc3c(c(=O)n1C2)COC(=O)[C@]3(O)CC", "pEC50", "<", 5.00],
  ["COc1cc(NCc2ccc3nc(N)nc(N)c3c2C)cc(OC)c1OC [TRIMETREXATE]", "pEC50", "=", 5.00],
  ["Nc1ncnc2c1nc(Cl)n2[C@@H]1O[C@H](CO)[C@@H](O)[C@H]1O", "pEC50", "=", 9.00]
]}

---

# key: entry, value: CMK %inh
Tested on: CMK
Set-up: species or system AML cell lines (8); Primary HTS, single concentration about 10 uM, Cell Titer Glo viability; log10 luminescence, per cent inhibition relative to cycloheximide control
Conditions: 72 h, relative to cycloheximide control, log10 luminescence; inhibitor

{"columns": ["COMPOUND", "CMK %inh / %"],
 "data": [
  ["Cc1ccc(NC(=O)CC2CC2)cc1-c1ccc(C(=O)NCC2CC2)cc1", 4.183],
  ["CCc1cc(C(N)=S)ccn1 [SJ000285764-4, ETHIONAMIDE]", -7.383],
  ["CC(=O)Nc1cccc(-n2c(=O)n(C3CC3)c(=O)c3c(Nc4ccc(I)cc4F)n(C)c(=O)c(C)c32)c1", 4.055],
  ["CN(C)[C@@H]1C(=O)C(C(N)=O)=C(O)[C@@]2(O)C(=O)C3=C(O)c4c(O)cccc4[C@@](C)(O)[C@H]3[C@H](O)[C@@H]12", -2.364],
  ["c1ccc(COc2ccc(Nc3ncnc4ccc(-c5ccco5)cc34)cc2)cc1", 6.655],
  ["CCOc1ccc2c(-c3ccnc(Nc4cc(OC)cc(C(F)(F)F)c4)n3)cnn2n1", -2.522],
  ["Nc1c(C(=O)c2cccc(-c3cccnc3)c2)cnn1-c1ccc(F)cc1", -3.194],
  ["Nc1c(C(=O)c2cccc(C(O)(CO)CO)c2)cnn1-c1ccc(F)cc1", -0.6841],
  ["Cn1cc(C2=C(c3cn(C)c4ccccc34)C(=O)NC2=O)c2ccccc21", 24.68],
  ["CC(=O)CCCCn1c(=O)c2c(ncn2C)n(C)c1=O", 2.352],
  ["O=C(Nc1n[nH]c2cc(-c3ccccc3)ccc12)C1CC1", 85.27],
  ["CCS(=O)(=O)c1ccc(OC)c(Nc2ncc(-c3ccccc3Cl)o2)c1", -1.56],
  ["O=C1Nc2ccccc2C1=C1CCc2cc(O)ccc21", 25.36],
  ["Cc1[nH]n(-c2ccccc2)c(=O)c1C(=O)c1ccccc1", -9.373],
  ["COc1cc[nH]c1/C=C1\\C(=O)Nc2ccc(F)c(I)c21", -0.2359],
  ["O=C(/C=C/c1ccc(CN(CCO)CCc2c[nH]c3ccccc23)cc1)NO", 120.3]
]}

---

# key: entry, value: U937 %inh
System: U937
Parameters: species or system AML cell lines (8); Primary HTS, single concentration about 10 uM, Cell Titer Glo viability; log10 luminescence, per cent inhibition relative to cycloheximide control
Conditions: 72 h, relative to cycloheximide control, log10 luminescence; inhibitor

{"columns": ["COMPOUND", "U937 %inh, %"],
 "data": [
  ["COc1cc(F)c(F)cc1C(=O)c1cnc(NC2CCN(S(C)(=O)=O)CC2)nc1N", 15.86],
  ["CN(C)C(=O)O[C@@H]1CN[C@@H](C#Cc2cc3ncnc(Nc4ccc(OCc5cccc(F)c5)c(Cl)c4)c3s2)C1", 3.489],
  ["Fc1ccc(-c2c(-c3ccncc3)[nH]c3nccnc23)cc1", 0.7484],
  ["Nc1ncc(-c2cccc(S(N)(=O)=O)c2)c2scc(-c3ccc(F)c(Cl)c3)c12", 8.699],
  ["Cn1cc(C2=C(c3c4n(c5ccccc35)CCCC4)C(=O)NC2=O)c2ccccc21", 27.07],
  ["C[C@@H]1C[C@H]2[C@@H]3C[C@H](F)C4=CC(=O)C=C[C@]4(C)[C@@]3(F)[C@@H](O)C[C@]2(C)[C@@]1(OC(=O)c1ccco1)C(=O)SCF [SJ000556747-1, FLUTICASONE FUROATE]", 15.51],
  ["CC(C)(c1ccc(OCC2CO2)cc1)c1ccc(OCC2CO2)cc1 (stereo not shown)", -0.2101]
]}

---

# key: entry, value: MV4-11 %inh
Test system: MV4-11
Set-up: species or system AML cell lines (8); Primary HTS, single concentration about 10 uM, Cell Titer Glo viability; log10 luminescence, per cent inhibition relative to cycloheximide control
Conditions: 72 h, relative to cycloheximide control, log10 luminescence, inhibitor, MV4-11 %inh, 10 µM

{"columns": ["COMPOUND", "ASSAYED_SYSTEM", "MV4-11 %inh / %"],
 "data": [
  ["CO[C@H]1/C=C/O[C@@]2(C)Oc3c(C)c(O)c4c(O)c(c(/C=N/N5CCN(C)CC5)c(O)c4c3C2=O)NC(=O)/C(C)=C\\C=C\\[C@H](C)[C@H](O)[C@@H](C)[C@@H](O)[C@@H](C)[C@H](OC(C)=O)[C@@H]1C", "MV4-11", 6.955],
  ["C[C@]12CC[C@@H]3c4ccc(O)cc4C[C@@H](CCCCCCCCC[S+]([O-])CCCC(F)(F)C(F)(F)F)[C@H]3[C@@H]1CC[C@@H]2O (single isomer, unassigned)", "MV4-11", 6.552]
]}

---

Experiment: Pharmacokinetics of ruxolitinib, single oral dose, plasma LC-MS/MS
Type: in vivo, mice
Conditions: mouse, BoyJ, Female, 60 mg kg−1 oral gavage
Protocol: Data are mean ± standard error (SE) (N = 5 per gender). Concentration-time data were analyzed by non-compartmental analysis and pharmacokinetic parameters were calculated in WinNonLin. c–e, top Kaplan–Meier analysis of animal survival in c CHRF288–11-luciferase/YFP+ xenograft, d CBFA2T3-GLIS2/JAK2V617F-induced AMKL quaternary transplants, and e AMKL patient-derived xenograft. Animal studies were performed under protocols approved by the Institutional Animal Care and Use Committee at OSU. […]
EXPERIMENTAL_ENDPOINT: Cmax (µM)

{"columns": ["COMPOUND", "UNIT_SYMBOL", "OBS_VALUE"],
 "data": [
  ["N#CC[C@H](C1CCCC1)n1cc(-c2ncnc3[nH]ccc23)cn1 [Ruxolitinib, ruxolitinib]", "µM", 18.1]
]}

---

System: CMS
Format: cell-based
Settings: Homo sapiens, 72 h, read-out: IC50 CMS
EXPERIMENTAL_ENDPOINT: IC50 (nM)

{"columns": ["COMPOUND_SMILES", "EXPERIMENTAL_ENDPOINT", "OBS_VALUE"],
 "data": [
  ["N#CC[C@H](C1CCCC1)n1cc(-c2ncnc3[nH]ccc23)cn1", "IC50", 64]
]}

---

Test system: MV4-11
Test: Secondary dose-response HTS, Cell Titer Glo
Type: cell-based, human
Conditions: Homo sapiens; secondary high-throughput screen; MV4-11; read-out: average effective concentration, MV4-11
pEC50: −log10 of the molar value.
Response key: t means pEC50 >= 8; f means pEC50 < 8.

{"columns": ["MOLECULE", "CLASS_LABEL"],
 "data": [
  ["O=C(CCCCCCC(=O)Nc1ccccc1)NO [Vorinostat, reference compound]", "f"],
  ["COc1cc(N2CCC(N3CCN(C)CC3)CC2)ccc1Nc1ncc(Cl)c(Nc2ccccc2P(C)(C)=O)n1 [AP26113]", "f"],
  ["C[C@H]1[C@@H](O)O[C@@H]2O[C@@]3(C)CC[C@H]4[C@H](C)CC[C@@H]1[C@@]24OO3 [DIHYDROARTEMISININ]", "f"],
  ["CCN(CC)CCNC(=O)c1c(C)[nH]c(/C=C2\\C(=O)Nc3ccc(F)cc32)c1C [SUNITINIB]", "f"],
  ["Cc1ccc(F)c(NC(=O)Nc2ccc(-c3cccc4[nH]nc(N)c34)cc2)c1 [LINIFANIB]", "t"],
  ["CC[C@@]1(O)C(=O)OCc2c1cc1n(c2=O)Cc2cc3c(CN(C)C)c(O)ccc3nc2-1 [TOPOTECAN]", "f"],
  ["CC(C)c1cc(-c2n[nH]c(=O)n2-c2ccc3c(ccn3C)c2)c(O)cc1O [GANETESPIB]", "t"],
  ["CC1(COc2ccc3c(c2)ncn3-c2ccc3cccc(N4CCC(N)CC4)c3n2)COC1 [CRENOLANIB]", "f"],
  ["CN1C(=O)[C@@]23C[C@]4([C@]56C[C@@]78SS[C@@](CO)(C(=O)N7[C@H]5Nc5ccccc56)N(C)C8=O)c5ccccc5N[C@@H]4N2C(=O)[C@]1(CO)SS3 [CHAETOCIN]", "f"],
  ["C#Cc1cccc(Nc2ncnc3cc(OCCOC)c(OCCOC)cc23)c1 [ERLOTINIB]", "f"],
  ["CC(=O)O[C@@]12CO[C@@H]1C[C@H](O)[C@@]1(C)C(=O)[C@H](O)C3=C(C)[C@@H](OC(=O)[C@H](O)[C@@H](NC(=O)OC(C)(C)C)c4ccccc4)C[C@@](O)([C@@H](OC(=O)c4ccccc4)[C@H]21)C3(C)C [Docetaxel, docetaxel, reference compound]", "t"],
  ["COc1cc([C@@H]2c3cc4c(cc3[C@@H](O[C@@H]3O[C@@H]5CO[C@@H](C)O[C@H]5[C@H](O)[C@H]3O)[C@H]3COC(=O)[C@H]23)OCO4)cc(OC)c1O [ETOPOSIDE]", "f"],
  ["O=C(/C=C/c1cccnc1)NCCCCC1CCN(C(=O)c2ccccc2)CC1 [DAPORINAD]", "t"]
]}
